Test system: Ileum
Assay: Inhibition of acetylcholine-induced contraction in guinea pig ileum treated for 15 mins prior to acetylcholine challenge
Type: functional
Settings: Cavia porcellus, read-out: ED50 (the source's name)
As shown below, each of these compounds has a reported pEC50 value.
Convention used: pEC50 is expressed as -log10 of the molar concentration.

Compound: CN(C)[C@@H]1CC[C@H](c2ccccc2)N(Cc2ccccc2)C1 (relative stereo)
Target Or Test System: Ileum
pEC50: 5.84

Now for a further compound.
So what's the measured pEC50 for this one? CN(C)[C@H]1CC[C@H](c2ccccc2)N(Cc2ccccc2)C1 (relative stereo)
5.54
